- System: U2OS
- assayName: drug sensitivity score (DSS) for viability; higher = more toxic; extreme values may be limits of the assay
- conditionNotes: 72 h
experimentalReadout: drug sensitivity score

• CC[C@@H](c1ccc(F)c(F)c1)n1c(C(=O)OC)c(-c2ccno2)[nH]c1=S = 0
• O=c1[nH]c([C@@H]2CCCN2)nc2c1oc1ccc(Cl)cc12 = 0
• CSc1ccccc1Nc1nc(N2CCNCC2)nc2c(NCC3CC3)ncnc12 [KHK-IN-1] = 5.8
• Cn1ccc2cc3c(cc21)CCN3C(=O)Nc1cccnc1 = 0
• O=C1NC(=O)[C@@]2(CCOc3ccc(F)cc32)N1 [sorbinil] = 0
• CC(C)C[C@H](NC(=O)[C@H](CCCCN)NC(=O)[C@H](CCCNC(=N)N)NC(=O)[C@H](C)NC(=O)[C@H](CO)NC(=O)[C@H](CCCCN)NC(=O)[C@H](CCCNC(=N)N)NC(=O)[C@H](C)NC(=O)CNC(=O)[C@@H](NC(=O)[C@H](Cc1ccccc1)NC(=O)CNC(=O)CNC(=O)[C@@H](N)Cc1ccccc1)[C@@H](C)O)C(=O)N[C@@H](C)C(=O)N[C@@H](CC(N)=O)C(=O)N[C@@H](CCC(N)=O)C(=O)O [orphanin-fq] = 0
• CS(=O)(=O)CCNCc1nc(-c2ccc3ncnc(Nc4ccc(OCc5cccc(F)c5)c(Cl)c4)c3c2)cs1 = 0
• C[C@@H](CN1CCC(n2c(=O)[nH]c3cc(Cl)ccc32)CC1)NC(=O)c1ccc2ccccc2c1 = 0
• CN1CCc2c(c3ccccc3n2Cc2ccccc2)C1 [mebhydrolin] = 0
• O=C(O)CC(S)C(=O)O (stereo unspecified) [mercaptosuccinic-acid] = 0
• N=C(N)NC(=O)Cc1c(Cl)cccc1Cl [guanfacine] = 0
• NCC(=O)CCC(=O)O [5-aminolevulinic-acid] = 0
• Cc1c(Cc2ccc3ccccc3n2)c2cc(F)ccc2n1CC(=O)O = 0
• O=C(COc1ccc(C(=O)c2ccccc2)cc1)NC1CCN(Cc2ccccc2)CC1 [adiporon] = 0
• CCNC(=O)Nc1ccc(-c2nc3c(c(N4CCOC[C@@H]4C)n2)CCN(C2COC2)C3)cc1 [GDC-0349] = 8.3
• CC(C)[C@@H](C)/C=C/[C@@H](C)[C@H]1CC[C@H]2C3=CC=C4C[C@@H](O)CC[C@]4(C)[C@H]3CC[C@]12C [ergosterol] = 0
• CNCCCC1(c2ccccc2)OC(C)(C)c2ccccc21 (stereo unspecified) [talopram] = 0
• COC(=O)[C@]12CCC(C)(C)C[C@H]1[C@H]1C(=O)C=C3[C@@]4(C)C=C(C#N)C(=O)C(C)(C)[C@@H]4CC[C@@]3(C)[C@]1(C)CC2 [Bardoxolone Methyl] = 18.4
• O=c1[nH]c(=O)n([C@H]2C[C@H](O)[C@@H](CO)O2)cc1F [floxuridine] = 0.3
• CC(C)=CCc1c(O)cc(O)c2c(=O)c(O)c(-c3ccc(C(F)(F)F)cc3)oc12 [SNG-1153] = 3.1
• Cc1cc(CN)cc(C)c1NC(=O)c1ccc(-c2cc(Cl)ccc2Cl)o1 = 0.3
• CC(C)c1c(NC(=O)Nc2ccc(Cl)cc2)c(=O)n(-c2ccccc2)n1C [TC-FPR-43] = 0
• C[N+]1([O-])[C@@H]2CC[C@H]1C[C@@H](OC(=O)C(CO)c1ccccc1)C2 (stereo partly specified) [atropine-oxide] = 0
• OC[C@@H](O)[C@H]1O[C@@H]2O[C@H](C(Cl)(Cl)Cl)O[C@@H]2[C@H]1O [chloralose] = 0
• C[C@H]1C[C@H]2[C@@H]3CCC4=CC(=O)C=C[C@]4(C)[C@@]3(Cl)[C@@H](O)C[C@]2(C)[C@@]1(O)C(=O)CO [beclomethasone] = 0
• Cc1ccc(-c2nn(C(C)(C)C)c3ncnc(N)c23)cc1 [PP-1] = 3.8
